FYI, the data here is from patent US11542481B2.

# System: MND enzyme
# Type: biochemical, Methylobacterium Thebainfresser
# testSettings: overnight assays, purified MND enzyme from PLUSE cells
experimentalReadout: substrate acceptance / detectable N-demethylase activity (in words)

{"compound": "CN1[C@@H]2CC[C@H]1CC(=O)C2 [Tropinone]", "systemUnderTest": "MND enzyme", "measValue": "accepted"}
{"compound": "CN(C)Cc1c[nH]c2ccccc12 [Gramine]", "systemUnderTest": "MND enzyme", "measValue": "accepted"}
{"compound": "CN1[C@@H]2CC[C@H]1C[C@@H](OC(=O)[C@H](CO)c1ccccc1)C2 [Hyoscyamine]", "systemUnderTest": "MND enzyme", "measValue": "accepted"}
